Molecular target: TRPV1 (Rattus norvegicus)
Assay: capsaicin-induced 45Ca2+-uptake in primary dorsal root ganglion
Type: cell-based
Settings: primary DRG cells, ~0.5 µM capsaicin, single assay run in quadruplicate wells
Can you tell me Hill Slope ± SEM for the items I'm about to list?
Please respond with just the number, no unit label.

stdin: Please indicate Hill Slope ± SEM recorded for CCCC1C(C(=O)OCC)=C(c2ccccc2)N=C(C)/C1=C(/O)SCC (stereo not shown) [Compound 18]
stdout: 1.47

stdin: Please indicate Hill Slope ± SEM recorded for CCOC(=O)C1=C(C)NC(c2cccc(F)c2)=C(C(=O)OCC)C1CC (racemic) [Compound 10]
stdout: 2.64

stdin: Please indicate Hill Slope ± SEM recorded for CCOC(=O)C1=C(C)NC(c2ccc(F)cc2)=C(C(=O)OCC)C1CC (racemic) [Compound 11]
stdout: 2.01

stdin: Please indicate Hill Slope ± SEM recorded for CCOC(=O)C1=C(C)NC(c2cccc(Cl)c2)=C(C(=O)OCC)C1CC (racemic) [Compound 9]
stdout: 2.24

----------
Can you tell me Hill Slope ± SEM for the items I'm about to list?
Molecular target: TRPV1 (Rattus norvegicus, UniProt O35433)
Sequence (O35433 whole entry): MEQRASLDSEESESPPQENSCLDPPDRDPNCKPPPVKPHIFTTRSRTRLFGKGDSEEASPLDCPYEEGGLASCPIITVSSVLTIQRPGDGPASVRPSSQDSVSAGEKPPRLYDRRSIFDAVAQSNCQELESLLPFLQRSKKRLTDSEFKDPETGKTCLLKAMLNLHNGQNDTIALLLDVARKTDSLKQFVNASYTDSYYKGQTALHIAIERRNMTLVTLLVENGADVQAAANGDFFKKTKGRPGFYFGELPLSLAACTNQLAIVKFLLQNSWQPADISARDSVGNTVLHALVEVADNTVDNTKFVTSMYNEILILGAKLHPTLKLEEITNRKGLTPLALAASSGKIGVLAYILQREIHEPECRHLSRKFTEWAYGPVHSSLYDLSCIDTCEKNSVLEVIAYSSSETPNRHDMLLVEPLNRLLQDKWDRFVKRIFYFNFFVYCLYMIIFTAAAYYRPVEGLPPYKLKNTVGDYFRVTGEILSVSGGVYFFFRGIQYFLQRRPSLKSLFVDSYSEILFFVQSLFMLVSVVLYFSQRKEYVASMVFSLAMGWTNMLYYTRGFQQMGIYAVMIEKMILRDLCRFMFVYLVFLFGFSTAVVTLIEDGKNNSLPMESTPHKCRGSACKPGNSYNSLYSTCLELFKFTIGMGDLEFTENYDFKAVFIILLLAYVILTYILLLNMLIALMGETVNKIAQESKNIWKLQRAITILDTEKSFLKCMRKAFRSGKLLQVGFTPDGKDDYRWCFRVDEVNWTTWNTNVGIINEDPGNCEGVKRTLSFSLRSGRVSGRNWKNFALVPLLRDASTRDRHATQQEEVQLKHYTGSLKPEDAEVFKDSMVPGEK
Assay: capsaicin-induced 45Ca2+-uptake in TRPV1ε-NIH3T3 cells
Format: cell-based
Details: enhancement of 45Ca2+-uptake in presence of 2 µM capsaicin
Please respond with just the number, no unit label.

stdin: Please indicate Hill Slope ± SEM recorded for CCOC(=O)C1=C(c2ccccc2)N=C(C)/C(=C(/O)SCC)C1CC (stereo not drawn)
stdout: 1.55

stdin: Please indicate Hill Slope ± SEM recorded for CCOC(=O)C1=C(c2ccc(F)cc2)NC(C)=C(C(=O)SCC)C1CC (racemic)
stdout: 1.82

stdin: Please indicate Hill Slope ± SEM recorded for CCOC(=O)C1=C(C)NC(c2cccc(F)c2)=C(C(=O)OCC)C1CC (racemic)
stdout: 1.98

stdin: Please indicate Hill Slope ± SEM recorded for CCOC(=O)C1=C(C)NC(c2cccc(Cl)c2)=C(C(=O)OCC)C1CC (racemic)
stdout: 1.45

stdin: Please indicate Hill Slope ± SEM recorded for CCCC1C(C(=O)OCC)=C(c2ccccc2)N=C(C)/C1=C(/O)SCC (stereo not drawn)
stdout: 1.38

stdin: Please indicate Hill Slope ± SEM recorded for CCOC(=O)C1=C(c2cccc(F)c2)NC(C)=C(C(=O)SCC)C1CC (racemic)
stdout: 1.59
